Biological target: Carbonic anhydrase 7 (Homo sapiens) (UniProt P43166)
Sequence (P43166 whole entry): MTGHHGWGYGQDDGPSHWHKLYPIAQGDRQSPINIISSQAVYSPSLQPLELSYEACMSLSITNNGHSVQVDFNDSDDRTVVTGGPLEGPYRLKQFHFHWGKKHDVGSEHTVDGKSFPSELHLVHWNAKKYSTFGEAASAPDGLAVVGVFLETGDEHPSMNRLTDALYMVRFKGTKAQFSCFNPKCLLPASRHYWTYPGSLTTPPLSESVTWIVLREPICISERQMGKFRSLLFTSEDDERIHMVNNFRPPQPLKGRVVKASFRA
Experiment: Binding affinity to human CA7 by phenol red dye based stopped flow CO2 hydration assay
Conditions: filed as activator
metric: Ka
Respond with a number, then the unit of measure.

Answered cases to consult:
INPUT: Fill in the blank: the reported Ka of COc1ccc([Te]CC(C)N)cc1 (stereo not drawn) is ____.
OUTPUT: 44.9 µM

INPUT: May I ask what Ka has been recorded for Cc1cccc(C)c1[Se]CC(C)N (stereo not drawn) ?
OUTPUT: 21.4 µM

INPUT: Item under review: COc1ccc([Se]CC(C)N)cc1 (stereo not drawn) . Reported Ka?
OUTPUT: 23.3 µM

INPUT: Form field: reported Ka of CC(N)CSc1ccccc1Br (stereo not drawn)
OUTPUT: 23.2 µM

INPUT: Return reported Ka; argument: Cc1ccc([Se]CC(C)N)cc1 (stereo not drawn)
OUTPUT: 10.4 µM

INPUT: Find the recorded Ka belonging to CC(N)C[Se]c1ccc(F)cc1 (stereo not drawn) and report it.
OUTPUT: 13.4 µM

Please supply Ka for each of the following items, keeping them in order.
1. Cc1ccc([Te]CC(C)N)cc1 (stereo not drawn)
2. Cc1ccccc1[Se]CC(C)N (stereo not drawn)

OUTPUT:
1: 21.9 µM; 2: 14.2 µM
